Tested on: SNB-19 CNS
Test: NCI-60 one-dose screen, 48 h (100 = growth as untreated, 0 = no growth, -100 = all killed)
Details: 10 µM unless noted
About 83,000 compounds went through this panel and 20% of them were active in at least one assay; those are over-represented in the sample as a whole.
# growth per entry

{"MOLECULE": "CS(=O)(=O)c1ccc(-c2[nH]c3ccc(F)cc3c2/C=N/O)cc1", "growth / %": 103}
{"MOLECULE": "CCOC(=O)C(=CNc1ccccc1[N+](=O)[O-])C(=O)OCC", "growth / %": 91.2}
{"MOLECULE": "Clc1ccc(/C=C/c2nc(Nc3ccc(Cl)cc3)c3ccccc3n2)cc1", "growth / %": 100}
{"MOLECULE": "Clc1ccc2c(NCCCN3CCN(c4nc(-n5ccnc5)nc5ccccc45)CC3)ccnc2c1", "growth / %": 99.5}
{"MOLECULE": "C=C1c2c(C)nn(-c3ccc(S(N)(=O)=O)cc3)c2N(C)C23CC1C1(C)c4c(C)nn(-c5ccc(S(N)(=O)=O)cc5)c4N(C)C(C)(CC12)C3 (configuration not stated)", "growth / %": 43}
{"MOLECULE": "O=C1c2cccc3c(-c4ccc(-c5nc6c7ccccc7c7ccccc7c6[nH]5)cc4)ccc(c23)C(=O)N1CCN1CCNCC1", "growth / %": 103}
{"MOLECULE": "COc1ccc(-c2nc3sc4c(c3c(=O)[nH]2)CCCC4)c2ccccc12", "growth / %": 36}
{"MOLECULE": "C=C1c2c(C)nn(-c3ccc(N)cc3)c2N(C)C23CC1C1(C)c4c(C)nn(-c5ccc(N)cc5)c4N(C)C(C)(CC12)C3 (configuration not stated)", "growth / %": 80.7}
{"MOLECULE": "CCOc1cccnc1/C=N/NC(N)=S", "growth / %": 69.4}
{"MOLECULE": "COc1ccc(NC(=O)C(=O)c2c[nH]c3ccc(F)cc23)cc1", "growth / %": 104}
{"MOLECULE": "Cc1cc(N(CCCNc2ccnc3cc(Cl)ccc23)Cc2ccccn2)nc(N2CCOCC2)n1", "growth / %": 93.9}
{"MOLECULE": "C=C(C=O)C1CCC2(C(=O)O)CCC3(C)C(CCC4C5(C)CCC(O)C(C)(C)C5CCC43C)C12 (configuration not stated)", "growth / %": 66.3}
{"MOLECULE": "CCCCCCCCCCCCCCCCCC1=NCCN1C(=O)OCCO", "growth / %": 75.9}
{"MOLECULE": "COc1ccc(-c2cc(-c3ccc(Nc4nc(Nc5ccccc5)nc(Nc5ccc(Cl)cc5)n4)cc3)nc(N)c2C#N)cc1", "growth / %": 71.9}
{"MOLECULE": "O=C1CSC(c2ccc(O)cc2)N1c1nnc(Cn2cnnc2)o1 (configuration not stated)", "growth / %": 97.9}
{"MOLECULE": "COc1cc2c(O)n(CCCn3ccnc3)c3c4cnc5cccc(c(=O)c3c2cc1OC)c54", "growth / %": 33.8}
{"MOLECULE": "O=C(c1ccccc1)c1ccc(Cl)c([N+](=O)[O-])c1", "growth / %": 98.5}
{"MOLECULE": "O=C1Nc2ccccc2/C1=N/N=C/c1ccsc1", "growth / %": 95.5}
{"MOLECULE": "Clc1ccc(-c2nnc(Cn3ccnc3)o2)cc1", "growth / %": 95.5}
{"MOLECULE": "Cc1ccc(S(=O)(=O)N(CC[C@@H]2C[C@H]2c2cc3ccccc3o2)C(=O)NC2CCCCC2)cc1", "growth / %": 99.8}
{"MOLECULE": "C=CCO[C@H]1CO[C@H]2[C@@H]1OC[C@@H]2Oc1ccc(Nc2ccnc(Nc3ccc(O[C@H]4CO[C@H]5[C@@H]4OC[C@@H]5OCC=C)c(Cl)c3)n2)cc1Cl", "growth / %": -90.3}
{"MOLECULE": "CCNCCNc1cc(-c2ccc(C(=O)OC)cc2)c(C#N)c2nc3ccccc3n12", "growth / %": 41.8}
{"MOLECULE": "CCOC(=O)N1CCc2c(sc3c2C(=O)N[C@H](c2ccc(OC)cc2)N3)C1", "growth / %": 90}
{"MOLECULE": "O=C(/C=C/C12c3ccccc3C(c3ccccc31)C1C(=O)N(c3ccc(Cl)cc3)C(=O)C12)c1ccccn1 (configuration not stated)", "growth / %": -71.9}
{"MOLECULE": "CCCCN(CCCC)CCCn1c(=O)c2sc3ncccc3c2n2nnc(-c3ccccc3)c12", "growth / %": 101}
{"MOLECULE": "O=C(O)c1ccc(CO)o1", "growth / %": 103}
{"MOLECULE": "C=C(Cl)COC(=O)C(C)(C)O", "growth / %": 105}
{"MOLECULE": "O=C1CCC(N2C(=O)c3cccc(NCCCC4CCN(CCNC(=O)c5cc6c(o5)C(=O)c5ccccc5C6=O)CC4)c3C2=O)C(=O)N1 (configuration not stated)", "growth / %": -96}
{"MOLECULE": "CCOc1cc(C2C(Cl)C(=O)N2n2cnnc2)ccc1O (configuration not stated)", "growth / %": 102}
{"MOLECULE": "Cn1ccc(Cc2cnc(N)s2)n1", "growth / %": 98.9}
{"MOLECULE": "COc1cccc(CCC2CCCN(c3cc(C)nc(N)n3)C2)c1 (configuration not stated)", "growth / %": 23.8}
{"MOLECULE": "CCCN1CCN(c2ccc3nc(-c4ccc5nc(-c6ccc(OCC)c(OCC)c6)[nH]c5c4)[nH]c3c2)CC1", "growth / %": -39.7}

---

Test system: MDA-MB-231 breast
Assay: NCI-60 one-dose screen, 48 h (100 = growth as untreated, 0 = no growth, -100 = all killed)
Conditions: 10 µM unless noted
Compounds without any hit were thinned out: in the full panel of roughly 83,000, 20% have a hit.
Recorded growth values for a group of compounds are listed next.
ENDPOINT_NAME: growth (%)

{"COMPOUND": "COc1cc(-c2cc(-c3ccc(Nc4nc(Nc5ccccc5)nc(Nc5ccc(Cl)cc5)n4)cc3)nc(N)n2)cc(OC)c1OC", "ENDPOINT_NAME": "growth", "RESULT_NUMBER": 59}
{"COMPOUND": "COc1ccc(C2=NC(=O)NC2c2ccc(OC)cc2)cc1 (stereo not drawn)", "ENDPOINT_NAME": "growth", "RESULT_NUMBER": 73.9}
{"COMPOUND": "COc1ccc(-c2nc3ccccn3c2/C=C/C(=O)c2cc(OC)c(OC)c(OC)c2)cc1", "ENDPOINT_NAME": "growth", "RESULT_NUMBER": 42.1}
{"COMPOUND": "CCOC(=O)c1nnn(C(Cc2ccccc2Cl)C(=O)OCC)c1C (stereo not drawn)", "ENDPOINT_NAME": "growth", "RESULT_NUMBER": 104}
{"COMPOUND": "CCOC(=O)c1sc(-c2ccc(OS(=O)(=O)c3ccc(C(C)(C)C)cc3)c(C=O)c2)nc1C", "ENDPOINT_NAME": "growth", "RESULT_NUMBER": 53.7}
{"COMPOUND": "O=C1c2ccccc2C(=O)c2cc(Cn3cc[n+](Cc4ccc5ccccc5c4)c3)ccc21", "ENDPOINT_NAME": "growth", "RESULT_NUMBER": 81.4}
{"COMPOUND": "CNCCNc1nc2ccccc2c2c(=O)c3cc(F)ccc3oc12", "ENDPOINT_NAME": "growth", "RESULT_NUMBER": 39.2}
{"COMPOUND": "Cc1ccc2c(n1)C(=O)C(Oc1ccc(F)cc1)=CC2=O", "ENDPOINT_NAME": "growth", "RESULT_NUMBER": 105}
{"COMPOUND": "CCc1cc(Cc2cc(CC)cc(C(C)(C)C)c2O)c(O)c(C(C)(C)C)c1", "ENDPOINT_NAME": "growth", "RESULT_NUMBER": 13.8}
{"COMPOUND": "N#Cc1c(N)nc2c(nnn2-c2cccc(Br)c2)c1N", "ENDPOINT_NAME": "growth", "RESULT_NUMBER": 89}
{"COMPOUND": "CC(C)(C)c1ccc(C(=O)Nc2sc3c(c2C(N)=O)CCC(=O)C3)cc1", "ENDPOINT_NAME": "growth", "RESULT_NUMBER": -59.5}
{"COMPOUND": "O=c1oc2ccc(Cl)cc2cc1-c1cs/c(=N/N=C\\c2ccc(Cl)cc2)n1/N=C/c1ccc(Cl)cc1", "ENDPOINT_NAME": "growth", "RESULT_NUMBER": 101}
{"COMPOUND": "CCCCCOC(=O)c1cccc(NC(=O)CN(CC)CC)c1", "ENDPOINT_NAME": "growth", "RESULT_NUMBER": 117}

---

System: KM12 colon
Assay: NCI-60 one-dose screen, 48 h (100 = growth as untreated, 0 = no growth, -100 = all killed)
Conditions: 10 µM unless noted
The panel holds about 83,000 compounds, 20% with a hit somewhere; the sample as a whole holds those more often.

{"COMPOUND": "O=S(=O)(NCCNc1cc(-c2c(-c3cccc(O)c3)nc3sccn23)ccn1)c1ccc(Br)cc1", "EXPERIMENTAL_SYSTEM": "KM12 colon", "growth [%]": 51.3}
{"COMPOUND": "Cc1[nH]c(-c2nc3ccccc3[nH]2)c(C)c1C(=O)N1CCOCC1", "EXPERIMENTAL_SYSTEM": "KM12 colon", "growth [%]": 105}
{"COMPOUND": "Cc1nc(Nc2ccc(S(=O)(=O)Nc3cc(C)on3)cc2)c2ccccc2n1", "EXPERIMENTAL_SYSTEM": "KM12 colon", "growth [%]": 103}
{"COMPOUND": "COc1cc2nc(Nc3ccc(F)cc3)nc(N)c2cc1OC", "EXPERIMENTAL_SYSTEM": "KM12 colon", "growth [%]": 94.7}
{"COMPOUND": "CSc1nc(N)c(CNC(C)c2ccccc2)c(=O)n1C (stereo not given)", "EXPERIMENTAL_SYSTEM": "KM12 colon", "growth [%]": 106}
